Protocol notes: qHTS for Inhibitors of human tyrosyl-DNA phosphodiesterase 1 (TDP1): qHTS in cells in absence of CPT; also: nearly all actives have a fitted effect of over 55% in size
Condition context: DT40 Tdp1-/- hTDP1 cells, no CPT, ATP luminescence, 48 h
Screen size: about 420,000 compounds; about 64,000 (15%) were called active. Inconclusive results (about 27%) are left out. Calls follow the shape of the dose curve; as a rule, active = well fitted inhibition curve with a large enough effect; inconclusive = small, poorly fitted or top-dose-only effect; inactive = flat fitted curve, though single readings scatter. Only a sample is shown.
Can you answer with just one of these options? true for active, false for inactive

Request: State the result this test recorded for CCCCCC(=O)Nc1ccc(C(=O)N/N=C/c2ccc([N+](=O)[O-])cc2)cc1 .
Response: false

Request: State the result this test recorded for Cc1cccc(NC(=O)CSC(N)=O)c1C .
Response: true

Request: State the result this test recorded for Cc1cccc(CSc2ccc(-c3cccs3)nn2)c1 .
Response: false

Request: State the result this test recorded for CC(C)OC(=O)c1ccc(NCc2cc(O)ccc2O)cc1Cl .
Response: true

Request: State the result this test recorded for Cc1ccc2nc(-c3ccccc3)cc(C(=O)O)c2c1 .
Response: false

Request: State the result this test recorded for COc1ccc(Cl)cc1NC(=O)CN(C)C(=O)c1cc2ccccc2cc1OC .
Response: true

Request: State the result this test recorded for COc1ccc(Cl)cc1NC(=O)CSc1nc(-c2cccs2)cc(C(F)(F)F)n1 .
Response: true

Request: State the result this test recorded for COCCCNC(=O)Cn1cc(/C=C(\C#N)C(=O)N2CCN(c3ccccc3)CC2)c2ccccc21 .
Response: false

Request: State the result this test recorded for CC(NC(=O)COc1cccnc1[N+](=O)[O-])c1ccc(Cl)cc1Cl (centres undefined) .
Response: false

Request: State the result this test recorded for CC(CN1CCOCC1)OC(=O)c1ccc(Cl)cc1Cl (centres undefined) .
Response: false

Request: State the result this test recorded for CCc1ccc(C(CNc2nc(C(F)(F)F)nc3ccccc23)N(C)C)cc1 (centres undefined) .
Response: true

Request: State the result this test recorded for O=C(CC(NCc1cccnc1)C(=O)O)Nc1ccc(O)cc1 (centres undefined) .
Response: false

Request: State the result this test recorded for Cc1cc(C)c2nc(N3CCC(C(=O)NCCN4CCOCC4)CC3)sc2c1 .
Response: false

Request: State the result this test recorded for Cc1cc(C)cc(N(C(C)C(=O)Nc2c(C)n(C)n(-c3ccccc3)c2=O)S(C)(=O)=O)c1 (centres undefined) .
Response: false

Request: State the result this test recorded for COc1ccc(NC(=O)CN(C)C(=O)CNC(=O)C2CCCCC2)cc1 .
Response: false

Request: State the result this test recorded for CCn1c(SCC(=O)Nc2ccc3c(c2)OCCO3)nnc1-c1ccncc1 .
Response: false

Request: State the result this test recorded for Cc1cccc(NC(=O)COC(=O)CCc2ccccc2)c1C .
Response: false

Request: State the result this test recorded for CCc1nc2ccc(C(=O)N3CCC(O)(Cc4ccccc4)CC3)cn2c1N(C)C(=O)Cc1ccccc1 .
Response: false

Request: State the result this test recorded for CCOC(=O)c1sc(=NC(=O)c2ccc(Br)cc2)n(C)c1C .
Response: false

Request: State the result this test recorded for CCc1nc2c(OCc3ccc(C(F)(F)F)cc3)cccn2c1N(C)C(=O)CC(C)C .
Response: true

Request: State the result this test recorded for O=C1CCN(C(=S)NCCc2ccccc2)CC1 .
Response: false

Request: State the result this test recorded for CN(CCc1cnn(C)c1)Cc1cn(C)nc1-c1ccccc1F .
Response: false

Request: State the result this test recorded for COc1cccc(NC(=O)CN(C)C(=O)Cc2ccc(Cl)cc2Cl)c1 .
Response: false

Request: State the result this test recorded for CC(=O)c1ccc(OC(=O)N2CCOCC2)cc1 .
Response: false

Request: State the result this test recorded for Cc1nn(CC(=O)Nc2ccc(N(C)C)cc2)c(C)c1[N+](=O)[O-] .
Response: false

Request: State the result this test recorded for COc1ccc(S(=O)(=O)N2CCN(C(=O)c3cccs3)CC2)cc1OC .
Response: false

Request: State the result this test recorded for S=C1SCN(CCN2CCOCC2)CN1Cc1ccccc1 .
Response: true

Request: State the result this test recorded for CCOC(=O)N1CCC(NC(=O)c2ccc3nc(N4CCOCC4)sc3c2)CC1 .
Response: false

Request: State the result this test recorded for COc1ccc(-c2cc(C(F)(F)F)nc(SCC(=O)Nc3ccc4c(c3)OCO4)n2)cc1OC .
Response: false

Request: State the result this test recorded for COC(=O)c1cc(C(=O)CSc2nc(C)cc(C)n2)ccc1O .
Response: false

Request: State the result this test recorded for CCCCC(=O)N(C)c1c(CC)nc2c(OCc3ccc(Cl)cc3Cl)cccn12 .
Response: true

Request: State the result this test recorded for COC(=O)c1cn(CC(=O)NCc2cccs2)c2ccccc12 .
Response: false

Request: State the result this test recorded for Cc1ccc2nc(-c3ccncc3)cc(C(=O)Nc3ccc4c(c3)OCCO4)c2c1 .
Response: true

Request: State the result this test recorded for CCN(CC)CCNC(=O)c1ccc(NS(=O)(=O)c2ccc3c(c2)OCCO3)cc1 .
Response: false

Request: State the result this test recorded for O=C(COc1ccc(Cl)cc1Cl)NCCCNC(=O)c1cnccn1 .
Response: false

Request: State the result this test recorded for O=C(Nc1ccncc1)c1cc(-c2ccccn2)nc2ccc(Br)cc12 .
Response: false

Request: State the result this test recorded for CCOc1ccc2nc(N3CCCC(C(=O)Nc4cc(C)ccc4C)C3)sc2c1 (centres undefined) .
Response: true

Request: State the result this test recorded for Oc1ccc(N2CCN(C(=S)NCc3ccccc3)CC2)cc1 .
Response: true

Request: State the result this test recorded for CCN(CC)CCNC(=O)c1ccc(NC(=O)c2cc(-c3ccncc3)nc3ccccc23)cc1 .
Response: true

Request: State the result this test recorded for O=C(NCCc1c[nH]c2ccc(Cl)cc12)c1ccc([N+](=O)[O-])cc1 .
Response: false

Request: State the result this test recorded for CC(C)(C)NC(=O)NC(=O)COC(=O)Cc1ccc(Cl)cc1Cl .
Response: false

Request: State the result this test recorded for O=C(Nc1cccn(Cc2c(Cl)cccc2Cl)c1=O)c1ccc(Cl)cc1 .
Response: false

Request: State the result this test recorded for Cc1ccc(CNC(=O)C2CCCN2S(=O)(=O)c2ccc3c(c2)C(C)(C)C(=O)N3C)cc1 (centres undefined) .
Response: false

Request: State the result this test recorded for CCOc1ccc2nc(N3CCC(C(=O)Nc4cc(C)ccc4C)CC3)sc2c1 .
Response: true
